Source of measurements: ChEMBL document CHEMBL1156523

# System: Cryptosporidium parvum
# ASSAY_OVERVIEW: Anticryptosporidial activity against Cryptosporidium parvum GCH1 assessed as inhibition of rabbit erythrocytes hemagglutinination relative to galactose
# Type: functional
OUTCOME_MEASURE: Activity

> print(dat)
                                   molecule  modifier.sign  value
1  O=C[C@H](O)[C@@H](O)[C@@H](O)[C@H](O)CO [GALACTOSE]              =      1
2  CC(=O)N[C@@H]1[C@@H](O)[C@H](O)[C@@H](CO)O[C@H]1O [N-ACETYLGLUCOSAMINE]              =  0.124
3  C[C@H](O)[C@@H](O)[C@@H](O)[C@H](O)C=O [L-FUCOSE]              <  0.062
4  CC(=O)N[C@H]1C(O)O[C@H](CO)[C@H](O)[C@@H]1O (stereo partly specified)              =      2
5  OC[C@H]1OC(O)[C@@H](O)[C@@H](O)[C@@H]1O (stereo partly drawn) [D-MANNOSE]              =  0.124
6  OC[C@H]1O[C@@H](O)[C@H](O)[C@@H](O)[C@@H]1O [DEXTROSE]              =  0.062
